# procedure_summary: AUC in rat at 1 mg/kg, iv
# Assay type: ADME, organism-based
# Parameters: dose 1 mg/kg, route intravenous
# recorded_conditions: plasma
attribute_measured: AUC (µM·h)
Unit µM·h implied. Number only.

Answer with reported AUC of "Cc1nc([C@](C)(O)CO)sc1-c1cnc(N)c(O[C@H](C)c2cc(F)ccc2-n2nccn2)c1"
0.667

* * *

Each entry below carries its recorded logD.
# procedure_summary: physchem
# recorded_conditions: octanol/water, pH 7.4
In your answer, state the number alone without any accompanying words.

The cases that follow already have their logD on record.
In [3]: df
Out[3]:
                           structure_smiles  measured
0  Cc1nccn1-c1cnc(N)c(O[C@H](C)c2cc(F)ccc2-n2nccn2)c1       2.4
1  COc1ccc(F)cc1[C@@H](C)Oc1cc(-c2c[nH]nc2C)cnc1N       3.5
2  Cc1nc(C(C)(C)O)sc1-c1cnc(N)c(O[C@H](C)c2cc(F)ccc2-n2nccn2)c1       3.6
3  Cc1nc([C@](C)(O)CO)sc1-c1cnc(N)c(O[C@H](C)c2cc(F)ccc2-n2nccn2)c1       2.9

Now take the following compound into account.
Quick one: give measured logD for "Cc1n[nH]cc1-c1cnc(N)c(O[C@@H](C)c2cc(F)ccc2C#N)c1"
2.7

* * *

# procedure_summary: in vitro
# recorded_conditions: human, liver microsomes
# Description: Apparent total intrinsic clearance in human liver microsomes
attribute_measured: log10 CLint scaled (log10 of the value in mL/min/kg)
Kindly note that the scale is log10 and the underlying CLint scaled is in mL/min/kg.

// below: answered compounds
In [3]: df
Out[3]:
                                   compound  measured
0  Cc1nc(C(C)(C)O)ccc1-c1cnc(N)c(O[C@H](C)c2cc(F)ccc2-n2nccn2)c1      1.69
1  COc1ncncc1-c1cnc(N)c(O[C@H](C)c2cc(F)ccc2-n2nccn2)c1      1.69
2  Cc1n[nH]cc1-c1cnc(N)c(O[C@H](C)c2cc(F)ccc2-n2nccn2)c1      1.66
3  Cc1nn(C)cc1-c1cnc(N)c(O[C@H](C)c2cc(F)ccc2-n2nccn2)c1      1.83

Find the measured log10 CLint scaled of "Cc1nccn1-c1cnc(N)c(O[C@H](C)c2cc(F)ccc2-n2nccn2)c1" and report it.
1.90

Identify measured log10 CLint scaled associated with "C[C@@H](Oc1cc(-c2cn(C)nc2C#N)cnc1N)c1cc(F)ccc1-n1nccn1"
1.34

Fill in reported log10 CLint scaled for this entry: "COc1ccc(F)cc1[C@@H](C)Oc1cc(-c2c[nH]nc2C)cnc1N"
1.81

Name the recorded log10 CLint scaled of the compound listed here: "Cc1n[nH]cc1-c1cnc(N)c(O[C@@H](C)c2cc(F)ccc2C#N)c1"
1.57

Using the record for "Cc1nc([C@](C)(O)CO)sc1-c1cnc(N)c(O[C@H](C)c2cc(F)ccc2-n2nccn2)c1" , state its measured log10 CLint scaled.
1.18

Identify measured log10 CLint scaled corresponding to Cc1nc(C2(O)CCOC2)sc1-c1cnc(N)c(O[C@H](C)c2cc(F)ccc2-n2nccn2)c1 (single isomer, unassigned)
2.14

Supply log10 CLint scaled value. Item: "Cc1nc(C(C)(C)O)sc1-c1cnc(N)c(O[C@H](C)c2cc(F)ccc2-n2nccn2)c1"
1.36

Consider the compound "Cc1nc([C@@](C)(O)CO)sc1-c1cnc(N)c(O[C@H](C)c2cc(F)ccc2-n2nccn2)c1" . State its measured log10 CLint scaled.
1.18

Annotate the compound "C[C@@H](Oc1cc(-c2ccnn2C)cnc1N)c1cc(F)ccc1-n1nccn1" with its measured log10 CLint scaled.
1.23

Entry Cc1nc(C2(O)CCS(=O)(=O)C2)sc1-c1cnc(N)c(O[C@H](C)c2cc(F)ccc2-n2nccn2)c1 (stereo not given in full) needs its log10 CLint scaled filled in; supply it.
1.11

State its log10 CLint scaled: "COc1ncccc1-c1cnc(N)c(O[C@H](C)c2cc(F)ccc2-n2nccn2)c1"
1.58
